- experimentNotes: PK/PD relation for efficacy: cabozantinib PK at progressive disease
- Assay type: in vivo, human
- details: human, plasma, oral, Mean AUC (SD), patients with progressive disease (PD)
observedProperty: AUC

AUC measured on COc1cc2nccc(Oc3ccc(NC(=O)C4(C(=O)Nc5ccc(F)cc5)CC4)cc3)c2cc1OC [cabozantinib] = 17700 ng·h/mL

###

- Type: in vivo, human
- details: human, plasma, oral, Median AUC (IQR), patients without relevant toxicity
observedProperty: AUC (ng·h/mL)
Dear colleague, please return just the value in ng·h/mL, with no unit written.

AUC measured on COc1cc2nccc(Oc3ccc(NC(=O)C4(C(=O)Nc5ccc(F)cc5)CC4)cc3)c2cc1OC [cabozantinib] = 16000

These data points were gathered from paper PMC8645912.
